Test system: CEM cells HIV-1 protection, formazan growth assay
protocolSummary: NCI AIDS Antiviral Assay
conditions: measured here: growth of uninfected CEM cells

compound	resultUnits	relationSymbol	IC50
COc1cc2c(c3[nH]cc(C(=O)O)c(=O)c13)NC(=O)CS2	µM	>	200
CCOC(=S)SSC(=S)OCC	µM	=	107
COc1cccc(N=N/C(=N/NC(=O)c2cc(Cl)ccc2O)c2ccc(N(CCC#N)CCC#N)cc2C)c1	µM	=	29.5
COc1cc(C(c2cc3c(cc2O)OCO3)N2CCCC2)cc(OC)c1OC (configuration not stated)	µM	=	7.76
COc1ccccc1C1SCC(=O)N1c1ccc(-c2ccc(-n3c(-c4ccccc4)nc4ccccc4c3=O)cc2)cc1 (configuration not stated)	µM	>	200
N=C(N)SCc1ccc(N=C=S)cc1	µM	=	83.2
CCOC(=O)CN1CCC2CC1c1c([nH]c3ccccc13)C2c1cc2c(cc1OC)N(C)C1C(O)(C(=O)OC)C(OC(C)=O)C3(CC)C=CCN4CCC21C43 (configuration not stated)	µM	>	9.55

====

pEC50 by entry:
System: CEM cells HIV-1 protection, formazan growth assay
protocolSummary: NCI AIDS Antiviral Assay
pEC50: −log10 of the molar value.
resultType: pEC50

>>> df
                                   compound  resulttype  resultvalue
0  COc1ccc(-c2c3c(nc4[nH]c(=S)[nH]c(=S)c24)CCCC3)cc1OC       pEC50       < 3.70
1              COc1c(O)c2ccccc2c2cc(O)ccc12       pEC50       < 2.98
2  CCC(CCl)NC(=O)Nc1ccc(S(=O)(=O)c2ccc([N+](=O)[O-])cc2)cc1 (centres undefined)       pEC50       < 4.96
3  CC(C)(C)[Si](C)(C)OCC1OC(n2ccc(=O)[nH]c2=O)/C(=C\C#N)C1O[Si](C)(C)C(C)(C)C (centres undefined)       pEC50       < 3.70

====

Listed here: items and their measured pIC50.
System: CEM cells HIV-1 protection, formazan growth assay
protocolSummary: NCI AIDS Antiviral Assay
conditions: measured here: growth of uninfected CEM cells
pIC50: −log10 of the molar value.
resultType: pIC50

In [3]: df
Out[3]:
                                   compound  resultvalue
0                C[N+]1(C)CC=C(N2CCOCC2)CC1       < 3.70
1  CC(=O)NNc1nc(C)c(C(=O)/C=C/c2ccc(Cl)c(Cl)c2)s1       < 4.29
2  CCOC(=O)CCC(NC(=O)c1ccc(N=Cc2nc3ccccc3nc2-c2ccccc2)cc1)C(=O)OCC (stereo not drawn)       < 4.90

====

System: CEM cells HIV-1 protection, formazan growth assay
protocolSummary: NCI AIDS Antiviral Assay
Item-by-item account of EC50

molecule	systemTested	EC50
CP(=O)(CCSc1ccccc1)c1ccccc1 (configuration not stated)	CEM cells HIV-1 protection, formazan growth assay	> 661 µM
O=C1CSC(c2ccccc2[N+](=O)[O-])N1c1ccc(-n2c(-c3ccccc3)nc3ccccc3c2=O)cc1 (configuration not stated)	CEM cells HIV-1 protection, formazan growth assay	> 200 µM
CN(C)C(=S)SC(=S)N(C)C	CEM cells HIV-1 protection, formazan growth assay	> 200 µM
Cc1ccc(N=Nc2c(C)nn(C(=O)CC(=O)Nc3ccc(Cl)cc3)c2C)cc1C	CEM cells HIV-1 protection, formazan growth assay	> 200 µM
CCOC(=O)/C(=C/c1ccc(OC)c(OC)c1)C(=O)c1ccccc1	CEM cells HIV-1 protection, formazan growth assay	> 75.9 µM
COc1nc(C)nc2sc3c(c12)CCCC3	CEM cells HIV-1 protection, formazan growth assay	> 100 µM
Clc1ccc(C(OCn2ccnc2)c2nc3ccccc3[nH]2)c(Cl)c1 (configuration not stated)	CEM cells HIV-1 protection, formazan growth assay	> 200 µM
CC1(C)NC(C)(C)/C(=N\O)C(=NO)/C1=N/O	CEM cells HIV-1 protection, formazan growth assay	> 200 µM
Oc1ccccc1-n1nc2ccc3nonc3c2n1	CEM cells HIV-1 protection, formazan growth assay	> 200 µM
O=C1/C(=C/c2ccc([N+](=O)[O-])cc2)Cc2ccccc21	CEM cells HIV-1 protection, formazan growth assay	> 2.04 µM
COC(=O)C1C2CC3C(C2=O)C31 (configuration not stated)	CEM cells HIV-1 protection, formazan growth assay	> 200 µM
Cc1ccc(/C=N/Nc2ccc3ccccc3n2)s1	CEM cells HIV-1 protection, formazan growth assay	> 200 µM
COCC1=C(NNC(=O)c2ccncc2)[C@@]2(C)C(=CC1=O)Oc1c(C(C)=O)c(O)c(C)c(O)c12	CEM cells HIV-1 protection, formazan growth assay	> 200 µM
CC1=Nn2c(nnc2-c2ccc(Cl)cc2)NC(C)(C)C1	CEM cells HIV-1 protection, formazan growth assay	> 61.7 µM
O=S1(=O)OC2(c3ccccc31)c1cc(Br)c(O)c(O)c1Oc1c2cc(Br)c(O)c1O	CEM cells HIV-1 protection, formazan growth assay	> 39.8 µM
O=C1c2[nH]c3ccc(Br)cc3c2CCN1Cc1ccc(Cl)cc1	CEM cells HIV-1 protection, formazan growth assay	> 200 µM
C=C(NC(=O)C(=C)NC(=O)c1csc(C2=NC3c4csc(n4)C4NC(=O)c5csc(n5)C(C(C)(O)C(C)O)NC(=O)C5CSC(=N5)/C(=C/C)NC(=O)C(C(C)O)NC(=O)c5csc(n5)C3(CC2)NC(=O)C(C)NC(=O)C(=C)NC(=O)C(C)NC(=O)C(C(C)CC)NC2C=Cc3c(C(C)O)cc(nc3C2O)C(=O)OC4C)n1)C(N)=O (configuration not stated)	CEM cells HIV-1 protection, formazan growth assay	8.91 µM

# credit: PubChem BioAssay AID179
